Where these numbers come from: patent US20260209325A1

- experimentalSystem: T1, murine pro-myostatin (mouse, UniProt O08689 25-376, biotinylated (in the SPR assay))
- T1 construct: also called proGDF8 (mouse); mouse pro-myostatin
- protocolDescription: SPR Biacore 8K, biotin-antigen captured
Outcome: YES for koff of at least 0.0005 s⁻¹; NO for anything lower.

Consider the worked cases shown below.
binder	classAssignment
Ab123 (antibody, human IgG4 S228P, kappa, V domains shown) VH: EVQLVESGGGLVQPGGSLRLSCAASGFTFSKYDMSWVRQAPGKGLELVASISSSGGTRYYPDSVKGRFTISRDNAKNSLYLQMNSLRAEDTAVYYCAKDLWVASPGYGMDVWGQGTTVTVSS VL: DIVMTQSPLSLPVTPGEPASISCRSSQSLLHSSGHNYLHWYLQKPGQSPQLLIYLGSIRAPGVPDRFSGSGSGTDFTLKISRVEAEDVGVYYCMQALLNPPTFGGGTKVEIKR	YES
Ab125 (antibody, human IgG4 S228P, kappa, V domains shown) VH: EVQLVQSGAEVKKPGESLKISCKGSGNRISDYWMNWVRQVPGKGLEWMGNIYPGYSDATYNRKFKGQVTISADKSISTAYLQWSSLKASDTAIYYCARGRDGYNYFAAFDIWGQGTMVTVSS VL: EIVLTQSPATLSLSPGERATLSCRASQSVASSYLAWYQQKPGQAPRLLIYDTSSRAAGIPARFSGSGSGTDFTLTISSLEPEDFAVYYCHQYGSSLTTFGGGTKVEIKR	NO

Problem: Can Ab104 (antibody, human IgG4 S228P, kappa, V domains shown) VH: EVQLVESGGGLVQPGGSLRLSCAASGSAFSSYGMSWVRQAPGKGLELVASINSNGGSTYYPDSVKGRFTISRDNAKNSLYLQMNSLRAEDTAVYYCARDLLVKFLSWSHYYGMDVWGQGTTVTVSS VL: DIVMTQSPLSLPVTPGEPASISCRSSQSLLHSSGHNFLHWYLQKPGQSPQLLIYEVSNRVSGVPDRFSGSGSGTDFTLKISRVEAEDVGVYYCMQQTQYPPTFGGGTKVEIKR be said to have koff at or above 0.0005 s⁻¹?
Result: YES
